- assayText: Determination of kinetic solubility (pH 7.4)
- Assay type: physicochemical
- measurementSetup: phosphate buffer, pH 7.4, aqueous buffer, kinetic from dmso stock, 50 mM phosphate buffer pH 7.4, read-out: Ksol, pH 7.4
Assign Fulfilled to entries whose solubility kinetic at 2 h meets or exceeds 90 µg/mL; assign Not fulfilled to the rest.

Answered cases to consult:
>  <molecule>
N#CC[C@H]1CN(c2nc(OCC34CCCN3CCC4)nc3c2CCN(c2cccc4cccc(Cl)c24)C3)CCN1C(=O)/C=C/c1nc(C2COC2)no1

>  <qualitativeLabel>
Not fulfilled

$$$$
>  <molecule>
N#CC[C@H]1CN(c2nc(OC[C@@]34CCCN3C[C@H](F)C4)nc3c(F)c(-c4cccc5ccc(F)c(F)c45)ncc23)CCN1C(=O)/C=C/CN1CCSCC1

>  <qualitativeLabel>
Not fulfilled

$$$$
>  <molecule>
N#CC[C@H]1CN(c2nc(OC[C@@]34CCCN3C[C@H](F)C4)nc3c(F)c(-c4cccc(Cl)c4C(F)(F)F)ncc23)CCN1C(=O)/C=C/CN1CC2CC(C1)O2

>  <qualitativeLabel>
Fulfilled

$$$$
>  <molecule>
N#CC[C@H]1CN(c2nc(OC[C@@]34CCCN3C[C@H](F)C4)nc3c(F)c(-c4cccc(Cl)c4C(F)(F)F)ncc23)CCN1C(=O)/C=C/CN1[C@@H]2CC[C@H]1COC2

>  <qualitativeLabel>
Fulfilled

$$$$
>  <molecule>
N#CC[C@H]1CN(c2nc(OC[C@@]34CCCN3C[C@H](F)C4)nc3c2CCN(c2cccc4ccc(F)c(Cl)c24)C3)CCN1C(=O)/C=C/c1nc(C2COC2)no1

>  <qualitativeLabel>
Not fulfilled

$$$$
>  <molecule>
Cc1nsc(/C=C/C(=O)N2CCN(c3nc(OCC45CCCN4CCC5)nc4c3CCN(c3cccc5cccc(Cl)c35)C4)C[C@@H]2CC#N)n1

>  <qualitativeLabel>
Not fulfilled

$$$$
>  <molecule>
CCc1c(F)ccc2cccc(-c3ncc4c(N5CCN(C(=O)/C=C/CN6CC7CC(C6)O7)[C@@H](CC#N)C5)nc(OC[C@@]56CCCN5C[C@H](F)C6)nc4c3F)c12

>  <qualitativeLabel>
Fulfilled

$$$$
>  <molecule>
CCO[C@H]1CCN(C/C=C/C(=O)N2CCN(c3nc(OC[C@@]45CCCN4C[C@H](F)C5)nc4c(F)c(-c5cccc6cccc(Cl)c56)ncc34)C[C@@H]2CC#N)C1

>  <qualitativeLabel>
Fulfilled

$$$$
>  <molecule>
CN1CCN(C/C=C/C(=O)N2CCN(c3nc(OCC45CCCN4CCC5)nc4c3CCN(c3cccc5cccc(Cl)c35)C4)C[C@@H]2CC#N)CC1

>  <qualitativeLabel>
Fulfilled

$$$$

[ask] Hi team, for Cc1nccc(/C=C/C(=O)N2CCN(c3nc(OC[C@@]45CCCN4C[C@H](F)C5)nc4c(F)c(-c5nc(N)cc6cccc(F)c56)ncc34)C[C@@H]2CC#N)n1 , is the recorded solubility kinetic at 2 h at or above 90 µg/mL?
[reply] Not fulfilled

---

- assayText: Determination of kinetic solubility (pH 7.4)
- Type: physicochemical
- measurementSetup: phosphate buffer, pH 7.4, aqueous buffer, kinetic from dmso stock, 50 mM phosphate buffer pH 7.4, read-out: Ksol, pH 7.4
measuredAttribute: solubility kinetic at 2 h (µg/mL)
Answers are plain numbers, in µg/mL.

As a guide, the following entries are already answered.
>  <molecule>
N#CC[C@H]1CN(c2nc(OC[C@@]34CCCN3C[C@H](F)C4)nc3c(F)c(-c4cccc5ccc(F)c(F)c45)ncc23)CCN1C(=O)/C=C/CN1C2COCC1C2

>  <reading>
84.6

$$$$
>  <molecule>
N#CC[C@H]1CN(c2nc(OC[C@@]34CCCN3C[C@H](O)C4)nc3c(F)c(-c4cccc5cccc(Cl)c45)ncc23)CCN1C(=O)/C=C/CN1CCOCC1

>  <reading>
123

$$$$

Moving on to another compound below.
[ask] Give the reported value of solubility kinetic at 2 h for this record: N#CC[C@H]1CN(c2nc(OC[C@@]34CCCN3C[C@H](F)C4)nc3c(F)c(-c4cccc5cccc(Cl)c45)ncc23)CCN1C(=O)/C=C/CN1CC2CC(C1)O2
[reply] 96.6

---

Consider the following molecules; for each one, report its IC50.
- targetEntity: KRAS G12C (GMPPNP-loaded) and cRAF (Ras-binding domain) interaction (Homo sapiens (Human), UniProt P01116, C118S/C51S/C80L/G12C)
- Sequence (P01116 other isoform, or with tags, fused parts or gaps G12C/C51S/C80L/C118S): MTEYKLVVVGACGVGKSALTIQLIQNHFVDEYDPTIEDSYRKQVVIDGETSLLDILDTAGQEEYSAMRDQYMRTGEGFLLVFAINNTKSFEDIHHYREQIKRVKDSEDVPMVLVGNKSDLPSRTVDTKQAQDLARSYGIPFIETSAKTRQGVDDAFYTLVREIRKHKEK
- assayText: Inhibition of KRAS G12C and cRAF binding (AlphaScreen)
- measurementSetup: KRAS G12C loaded with GMPPNP, cRaf RBD, 2 hours preincubation; read-out: Raf-1 RBD K-Ras IC50

>  <molecule>
Cc1cc(/C=C/C(=O)N2CCN(c3nc(OC[C@@]45CCCN4C[C@H](F)C5)nc4c(F)c(-c5cccc6ccc(F)c(Cl)c56)ncc34)C[C@@H]2CC#N)nc(C)n1

>  <IC50>
< 10 nM

$$$$
>  <molecule>
N#CC[C@H]1CN(c2nc(OC[C@@]34CCCN3C[C@H](F)C4)nc3c(F)c(-c4cccc5ccc(F)c(Cl)c45)ncc23)CCN1C(=O)/C=C/c1ccnc(C2CC2)n1

>  <IC50>
< 10 nM

$$$$
>  <molecule>
N#CC[C@H]1CN(c2nc(OC[C@@]34CCCN3C[C@H](F)C4)nc3c(F)c(-c4cccc5cccc(Cl)c45)ncc23)CCN1C(=O)/C=C/CN1C[C@@H]2CC[C@H]1CO2

>  <IC50>
< 10 nM

$$$$
>  <molecule>
Cc1nccc(/C=C/C(=O)N2CCN(c3nc(OC[C@@]45CCCN4C[C@H](F)C5)nc4c(F)c(-c5nc(N)cc(C)c5C(F)(F)F)ncc34)C[C@@H]2CC#N)n1

>  <IC50>
< 10 nM

$$$$
>  <molecule>
N#CC[C@H]1CN(c2nc(OC[C@@]34CCCN3C[C@H](F)C4)nc3c2CCN(c2cccc4cccc(Cl)c24)C3)CCN1C(=O)/C=C/c1nc(C(F)F)no1

>  <IC50>
< 10 nM

$$$$

// each molecule listed below needs its IC50
1. N#CC[C@H]1CN(c2nc(OC[C@@]34CCCN3C[C@H](F)C4)nc3c2CCN(c2cccc4ccc(F)c(Cl)c24)C3)CCN1C(=O)/C=C/c1nc(C2COC2)no1
2. CCc1c(F)ccc2cccc(-c3ncc4c(N5CCN(C(=O)/C=C/CN6[C@@H]7CC[C@H]6COC7)[C@@H](CC#N)C5)nc(OC[C@@]56CCCN5C[C@H](F)C6)nc4c3F)c12
3. N#CC[C@H]1CN(c2nc(OCC34CCCN3CCC4)nc3c(F)c(-c4cccc5cccc(Cl)c45)ncc23)CCN1C(=O)/C=C/c1nc(C2CC2)no1

[reply]
< 10 nM
< 10 nM
100 to 500 nM

---

- assayText: Determination of kinetic solubility (pH 7.4)
- Format: physicochemical
- measurementSetup: phosphate buffer, pH 7.4, aqueous buffer, kinetic from dmso stock, 50 mM phosphate buffer pH 7.4, read-out: Ksol, pH 7.4
I'd appreciate it if you could supply solubility kinetic at 2 h values for the items below.
Numbers only, in µg/mL.

Example results:
>  <compound>
N#CC[C@H]1CN(c2nc(OC[C@@]34CCCN3C[C@H](F)C4)nc3c(F)c(-c4cccc5ccc(F)c(F)c45)ncc23)CCN1C(=O)/C=C/CN1CC2CC(C1)O2 [Compound 229]

>  <measuredAttribute>
solubility kinetic at 2 h

>  <unitName>
µg/mL

>  <reading>
69.9

$$$$
>  <compound>
N#CC[C@H]1CN(c2nc(OC[C@@]34CCCN3C[C@H](F)C4)nc3c(F)c(-c4cccc5cccc(Cl)c45)ncc23)CCN1C(=O)/C=C/CN1C[C@H]2CC[C@@H]1CO2 [Compound 258]

>  <measuredAttribute>
solubility kinetic at 2 h

>  <unitName>
µg/mL

>  <reading>
169

$$$$

Okay, now this compound:
[ask] Fill in reported solubility kinetic at 2 h for this entry: Cc1noc(/C=C/C(=O)N2CCN(c3nc(OC[C@@]45CCCN4C[C@H](F)C5)nc4c(F)c(-c5cccc6cccc(Cl)c56)ncc34)C[C@@H]2CC#N)n1 [Example 4]
[reply] 3.98

---

Hi there, I'd appreciate the recorded solubility kinetic at 2 h for every entry that follows.
- assayText: Determination of kinetic solubility (pH 7.4)
- Assay type: physicochemical
- measurementSetup: phosphate buffer, pH 7.4, aqueous buffer, kinetic from dmso stock, 50 mM phosphate buffer pH 7.4, read-out: Ksol, pH 7.4
- Description: 490 μL of a 50 mM phosphate buffer (pH 7.4) was added to the sample solution. The mixture was vortexed for at least 2 minutes. The vial was shaken on a Barnstead shaker at 800 rpm at room temperature for 2 hours. The vial was centrifuged at 4000 rpm for 20 minutes. The Mini-UniPrep vial was compressed to prepare a filtrate, which was injected into an HPLC-UV and LC-MS/MS system. Kinetic solubility was calculated by referencing sample peak areas to a standard calibration curve.
Answers are plain numbers, in µg/mL.

In the examples that follow, each entry is paired with its recorded solubility kinetic at 2 h.
>  <compound>
N#CC[C@H]1CN(c2nc(OC[C@@]34CCCN3C[C@H](F)C4)nc3c(F)c(-c4cccc5cccc(Cl)c45)ncc23)CCN1C(=O)/C=C/CN1CCS(=O)(=O)CC1

>  <reading>
29.9

$$$$
>  <compound>
Cc1nsc(/C=C/C(=O)N2CCN(c3nc(OC[C@@]45CCCN4C[C@H](F)C5)nc4c3C[C@H](C)[C@@H](c3nc(N)cc(C)c3C(F)(F)F)C4)C[C@@H]2CC#N)n1

>  <reading>
0.01

$$$$
>  <compound>
CCO[C@@H]1CCN(C/C=C/C(=O)N2CCN(c3nc(OC[C@@]45CCCN4C[C@H](F)C5)nc4c(F)c(-c5cccc6cccc(Cl)c56)ncc34)C[C@@H]2CC#N)C1

>  <reading>
104

$$$$
>  <compound>
C[C@H]1CN(C/C=C/C(=O)N2CCN(c3nc(OC[C@@]45CCCN4C[C@H](F)C5)nc4c(F)c(-c5cccc6cccc(F)c56)ncc34)C[C@@H]2CC#N)C[C@H](C)O1

>  <reading>
72.5

$$$$

Please go through the list and note solubility kinetic at 2 h for each compound.
1. Cc1cc(/C=C/C(=O)N2CCN(c3nc(OC[C@@]45CCCN4C[C@H](F)C5)nc4c(F)c(-c5cccc6cccc(F)c56)ncc34)C[C@@H]2CC#N)nc(C)n1
2. N#CC[C@H]1CN(c2nc(OC[C@@]34CCCN3C[C@H](F)C4)nc3c(F)c(-c4cccc5cccc(F)c45)ncc23)CCN1C(=O)/C=C/CN1CC2CCC(C1)O2
3. Cc1cc(N)nc([C@H]2Cc3nc(OC[C@@]45CCCN4C[C@H](F)C5)nc(N4CCN(C(=O)/C=C/CN(C)C)[C@@H](CC#N)C4)c3C[C@@H]2C)c1C(F)(F)F
4. C[C@@H]1CN(C/C=C/C(=O)N2CCN(c3nc(OC[C@@]45CCCN4C[C@H](F)C5)nc4c(F)c(-c5cccc6cccc(Cl)c56)ncc34)C[C@@H]2CC#N)C[C@@H](C)O1
5. CC(C)(O)c1noc(/C=C/C(=O)N2CCN(c3nc(OCC45CCCN4CCC5)nc4c3CCN(c3cccc5cccc(Cl)c35)C4)C[C@@H]2CC#N)n1
6. Cc1noc(/C=C/C(=O)N2CCN(c3nc(OCC45CCCN4CCC5)nc4c(F)c(-c5cccc6cccc(Cl)c56)ncc34)C[C@@H]2CC#N)n1
7. Cc1cc(N)nc(C2Cc3nc(OC[C@@]45CCCN4C[C@H](F)C5)nc(N4CCN(C(=O)/C=C/C5CCN5C)[C@@H](CC#N)C4)c3CC2C)c1C(F)(F)F (stereo partly drawn)

[reply]
6.14
74.4
74.5
84
73.1
161
102
